MEASURED_TARGET: Melanocortin receptor 4 (Homo sapiens, UniProt P32245)
Sequence (P32245 whole entry): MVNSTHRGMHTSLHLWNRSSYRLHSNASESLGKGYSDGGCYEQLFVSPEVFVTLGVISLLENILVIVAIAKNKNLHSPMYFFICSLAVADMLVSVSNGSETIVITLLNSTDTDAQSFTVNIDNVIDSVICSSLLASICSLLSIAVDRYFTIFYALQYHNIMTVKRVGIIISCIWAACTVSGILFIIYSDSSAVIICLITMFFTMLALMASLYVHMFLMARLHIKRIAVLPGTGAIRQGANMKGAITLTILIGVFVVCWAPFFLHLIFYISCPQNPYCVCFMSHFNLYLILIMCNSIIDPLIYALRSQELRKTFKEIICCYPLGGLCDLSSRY
PROTOCOL_TEXT: Displacement of Eu-NDP-alpha-MSH from human melanocortin 4 receptor expressed in HEK293 cells
ENDPOINT_LABEL: IC50 (nM)

{"columns": ["MOLECULE", "REPORTED_VALUE"],
 "data": [
  ["C#CCCCC(=O)N[C@@H](Cc1cnc[nH]1)C(=O)N[C@H](Cc1ccccc1)C(=O)N[C@@H](CCCNC(=N)N)C(=O)N[C@@H](Cc1c[nH]c2ccccc12)C(N)=O", 900],
  ["CC(C)C(O)CCC(C)C(O)CCC(C)C(CCC(O)C(C)CCC(O)C(C)CCC(OCCCCCCn1cc(CCCC(=O)N[C@@H](Cc2cnc[nH]2)C(=O)N[C@@H](Cc2ccccc2)C(=O)N[C@@H](CCCNC(=N)N)C(=O)N[C@@H](Cc2c[nH]c3ccccc23)C(N)=O)nn1)C(C)C)OCCCCCCn1cc(CCCC(=O)N[C@@H](Cc2cnc[nH]2)C(=O)N[C@@H](Cc2ccccc2)C(=O)NC(CCCNC(=N)N)C(=O)N[C@@H](Cc2c[nH]c3ccccc23)C(N)=O)nn1 (single isomer, unassigned)", 400],
  ["N=C(N)NCCC[C@H](NC(=O)C(Cc1ccccc1)NC(=O)[C@@H](N)Cc1cnc[nH]1)C(=O)N[C@@H](Cc1c[nH]c2ccccc12)C(=O)O (stereo in doubt)", 1100],
  ["CC(C)C(O)CCC(C)C(O)CCC(C)C(O)CCC(OCCCCCCn1cc(CCCC(=O)N[C@@H](Cc2cnc[nH]2)C(=O)N[C@H](Cc2ccccc2)C(=O)N[C@@H](CCCN=C(N)N)C(=O)N[C@@H](Cc2c[nH]c3ccccc23)C(N)=O)nn1)C(C)CCC(O)C(C)CCC(O)C(C)C (some centres undefined)", 3300]
]}

Sourced from ChEMBL document CHEMBL1145351
